# protocol.summary: BET inhibitor-based combinations targeting novel dependencies in MECOM-rearranged (r) AML: MV-4-11 cell line (AID 2202233); note: nearly all actives have a fitted effect of over 45% in size; note: potency is the fitted concentration of half-maximal effect
# recorded.conditions: MV-4-11 AML viability, CellTiter-Glo luminescence, 48 h; series mostly up to 46 µM
Records with an inconclusive call do not appear. Activity calls are given as the source filed them. Calls come from the whole dose curve; as a rule, active = well fitted inhibition curve with a large enough effect; inconclusive = small, poorly fitted or top-dose-only effect; inactive = no such curve, though single readings can be large or run the other way.

{"compound": "COc1ccc(-n2c(SCCCN3C(=O)c4cccc5cccc(c45)C3=O)nnc2-c2ccncc2)cc1", "Potency": "inactive"}
{"compound": "O=C(NCC1CN(c2ccc(N3CCOCC3=O)cc2)C(=O)O1)c1ccc(Cl)s1 (centres undefined)", "Potency": "inactive"}
{"compound": "O=S(=O)(O)CCS", "Potency": "inactive"}
{"compound": "Cc1cc(OCCCS(C)(=O)=O)cc(C)c1-c1cccc(COc2ccc3c(c2)OC[C@H]3CC(=O)O)c1", "Potency": "inactive"}
{"compound": "O=C(O)CCn1c2c(c3ccccc31)C[C@H](NS(=O)(=O)c1ccc(F)cc1)CC2", "Potency": "inactive"}
{"compound": "Cc1cnc(CNC(=O)c2c(=O)c3ccc(N4CCCN(C)CC4)nc3n3c2sc2ccccc23)cn1", "Potency": "1.08 µM (active)"}
{"compound": "C[C@@H](N)c1ccc(C(=O)Nc2ccnc3[nH]ccc23)cc1", "Potency": "3.72 µM (active)"}
{"compound": "O=C(Nc1cccc(C(F)(F)F)c1)Nc1cc(S(=O)(=O)NC2CC2)ccc1-c1ccsc1", "Potency": "26.3 µM (active)"}
{"compound": "O=c1c(O)c(-c2ccc(O)cc2O)oc2cc(O)cc(O)c12", "Potency": "inactive"}
{"compound": "O=C(C1CCCCC1)N1CC(=O)N2CCc3ccccc3C2C1 (centres undefined)", "Potency": "inactive"}
{"compound": "Cn1c2ccccc2c2c3c(c4c5ccccc5n(CCC#N)c4c21)CNC3=O", "Potency": "0.417 µM (active)"}
{"compound": "COc1cc([C@@H]2c3cc4c(cc3[C@H](O)[C@H]3COC(=O)[C@@H]23)OCO4)cc(OC)c1OC", "Potency": "0.833 µM (active)"}
{"compound": "CCC(=O)O[C@]1(C(=O)CCl)[C@@H](C)C[C@H]2[C@@H]3CCC4=CC(=O)C=C[C@]4(C)[C@@]3(F)[C@@H](O)C[C@@]21C", "Potency": "20.9 µM (active)"}
{"compound": "CC(C)(C)c1cc(C(=O)O)c(NC(=O)Nc2ccc3[nH]ncc3c2)s1", "Potency": "18.6 µM (active)"}
{"compound": "Cc1ccccc1-n1nc(-c2c(-c3ccc(F)cc3)nn3c2NC[C@@H](CO)C3)ccc1=O", "Potency": "inactive"}
{"compound": "Cc1ccc2c(c1)C(=O)[C@]1(O)CCN(c3ccccc3)C1=N2", "Potency": "23.5 µM (active)"}
{"compound": "CCNC(=O)Nc1ncc(-c2cc(-c3c(C)cc(OC)cc3C)nc(-c3cnccn3)n2)s1", "Potency": "inactive"}
{"compound": "CCN(c1cc(C#CCN2CCOCC2)cc(C(=O)NCc2c(C)cc(C)[nH]c2=O)c1C)C1CCC(N(C)CCOC)CC1 (centres undefined)", "Potency": "inactive"}
{"compound": "CNC(=O)c1cc(Oc2ccc(NC(=O)Nc3ccc(Cl)c(C(F)(F)F)c3)c(F)c2)ccn1", "Potency": "0.59 µM (active)"}

----------
# target.of.assay: Cellular tumor antigen p53 (Homo sapiens) (UniProt P04637)
# Sequence (P04637 whole entry, looked up): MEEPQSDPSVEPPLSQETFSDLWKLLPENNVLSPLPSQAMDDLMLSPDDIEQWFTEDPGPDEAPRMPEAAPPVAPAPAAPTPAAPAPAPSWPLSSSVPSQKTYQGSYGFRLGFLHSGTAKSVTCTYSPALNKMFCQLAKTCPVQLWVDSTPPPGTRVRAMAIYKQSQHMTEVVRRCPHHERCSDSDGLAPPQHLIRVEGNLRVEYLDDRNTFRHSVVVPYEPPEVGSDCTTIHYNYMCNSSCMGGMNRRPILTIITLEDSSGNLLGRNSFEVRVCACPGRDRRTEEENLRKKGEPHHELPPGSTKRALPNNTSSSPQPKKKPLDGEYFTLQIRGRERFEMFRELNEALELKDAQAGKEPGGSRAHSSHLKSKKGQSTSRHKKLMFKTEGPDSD
# protocol.summary: Primary qHTS for small molecule compounds that upregulate eGFP-tagged delta133p53alpha (in N-terminal) cells. (AID 2060322);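 note: cells pre-induced with doxycycline then dosed without doxycycline; 0% = DMSO vehicle and 100% = reference activator; nearly all actives have a fitted effect of over 75% in size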
# recorded.conditions: NCI-H358 eGFP-delta133p53alpha fluorescence, 24 h; stronger effect = higher value
Inconclusive results are not listed.
# activation values compiled below

{"compound": "C=C(C)[C@@H]1CC=C(COC(=O)NC(=O)c2ncn3c(=O)n(C)nnc23)CC1", "target.of.assay": "Cellular tumor antigen p53 (Homo sapiens) (UniProt P04637)", "activation, %": 10}
{"compound": "O=C(N/N=C/c1ccc(O)c(O)c1)c1cc2ccccc2cc1O", "target.of.assay": "Cellular tumor antigen p53 (Homo sapiens) (UniProt P04637)", "activation, %": 4.33}
{"compound": "O=C(O)C(O[C@@H]1O[C@H](CO[C@@H]2O[C@H](CO)[C@@H](O)[C@H](O)[C@H]2O)[C@@H](O)[C@H](O)[C@H]1O)c1ccccc1 (stereo partly specified)", "target.of.assay": "Cellular tumor antigen p53 (Homo sapiens) (UniProt P04637)", "activation, %": -16}
{"compound": "CCN(CCNC(=O)Nc1ccccc1Br)c1cccc(C)c1", "target.of.assay": "Cellular tumor antigen p53 (Homo sapiens) (UniProt P04637)", "activation, %": 5.67}
{"compound": "O=C(c1ccc(C#Cc2cccc(F)c2)cn1)N1CC2CC2C1 (stereo unspecified)", "target.of.assay": "Cellular tumor antigen p53 (Homo sapiens) (UniProt P04637)", "activation, %": -1}
{"compound": "Nc1ncnc2c1nc(Br)n2C1OC2COP(=O)(O)O[C@@H]2C1O (stereo partly specified)", "target.of.assay": "Cellular tumor antigen p53 (Homo sapiens) (UniProt P04637)", "activation, %": -6.56}

----------
# target.of.assay: Cellular tumor antigen p53 (Homo sapiens)
# protocol.summary: Primary qHTS for small molecule compounds that upregulate eGFP-tagged delta133p53alpha (in N-terminal) cells. (AID 2060322);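 note: cells pre-induced with doxycycline then dosed without doxycycline; 0% = DMSO vehicle and 100% = reference activator; nearly all actives have a fitted effect of over 75% in size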
# recorded.conditions: NCI-H358 eGFP-delta133p53alpha fluorescence, 24 h; stronger effect = higher value
Results filed as inconclusive are left out.
# activation values compiled below

{"molecule": "Cc1nc2c(C#N)c[nH]n2c(=O)c1C(C)C", "activation / %": 23.5}
{"molecule": "COC1C=C(C)C(O)(CO)C2(C)CCCC(C)(C)C12 (centres undefined)", "activation / %": 13}
{"molecule": "COC1(C2=NCCN2)COc2ccccc2O1 (centres undefined)", "activation / %": -0.599}
{"molecule": "CC(=O)O[C@@H]1[C@@H](O)[C@H](C)O[C@@H](O[C@H]2[C@@H]3C=CO[C@@H](O[C@@H]4O[C@H](CO)[C@@H](O)[C@H](O)[C@H]4OC(C)=O)[C@@H]3[C@@]3(CO)O[C@@H]23)[C@@H]1OC(=O)/C=C/c1ccc(O)cc1", "activation / %": -17.6}
{"molecule": "CC(=O)C=C=C1C(C)(C)CC(O[C@@H]2O[C@H](CO)[C@@H](O)[C@H](O)[C@H]2O)CC1(C)O (some centres undefined)", "activation / %": -1.79}
{"molecule": "COCCN1CCC(C(=O)NO)(S(=O)(=O)c2ccc(Oc3ccc(OC(F)(F)F)cc3)cc2)CC1", "activation / %": -13.4}
{"molecule": "COc1cc(O)cc2c1C(=O)OC(C)C2 (centres undefined)", "activation / %": -13}
{"molecule": "C[C@H]1O[C@@H](n2cc(F)c(=O)[nH]c2=O)[C@H](O)[C@H]1O", "activation / %": 0.294}
{"molecule": "C=C1CC2(C(=O)O)CC1CCC2C1(C)CCCC2(C)C(=O)OC(O)C21 (centres undefined)", "activation / %": -6.87}

----------
# target.of.assay: Cellular tumor antigen p53 (Homo sapiens)
# protocol.summary: Primary qHTS for small molecule compounds that upregulate eGFP-tagged delta133p53alpha (in N-terminal) cells. (AID 2060322);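 note: cells pre-induced with doxycycline then dosed without doxycycline; 0% = DMSO vehicle and 100% = reference activator; nearly all actives have a fitted effect of over 75% in size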
# recorded.conditions: NCI-H358 eGFP-delta133p53alpha fluorescence, 24 h; stronger effect = higher value
Results filed as inconclusive are left out.

{"compound": "CCNC(=O)[C@@H]1CCCN1C(=O)[C@H](CCCN=C(N)N)NC(=O)[C@H](CC(C)C)NC(=O)[C@@H](CC(C)C)NC(=O)[C@H](Cc1ccc(O)cc1)NC(=O)[C@H](CO)NC(=O)[C@H](Cc1c[nH]c2ccccc12)NC(=O)[C@H](Cc1cnc[nH]1)NC(=O)[C@@H]1CCC(=O)N1", "scale.unit": "%", "activation": 7}
{"compound": "COc1c2c(cc3c1-c1c(cc4c(c1OC)OCO4)CC(C)C(C)C3)OCO2 (stereo not given)", "scale.unit": "%", "activation": -6.87}
{"compound": "C=CC(=O)N1CCCN(c2cc(NCCC(=O)O)nc(-c3ccccn3)n2)CC1", "scale.unit": "%", "activation": 9.67}
{"compound": "CC(C)CC(=O)O[C@@H]1O[C@H](CO)[C@@H](O[C@H]2O[C@H](C)[C@@H](N[C@H]3C=C(CO)[C@@H](O[C@H]4O[C@H](CO)[C@@H](O[C@H]5O[C@H](CO)[C@@H](O[C@H]6O[C@H](CO)[C@@H](O)[C@H](O)[C@H]6O)[C@H](O)[C@H]5O)[C@H](O)[C@H]4O)[C@H](O)[C@H]3O)[C@H](O)[C@H]2O)[C@H](O)[C@H]1O", "scale.unit": "%", "activation": -13.7}
{"compound": "CC1C2=CC(=O)OC2(O)CC2C1C(OC(=O)c1ccccc1)C(OC(=O)c1ccccc1)C1(O)C2(C)CCC(O)C1(C)C(=O)O (stereo not given)", "scale.unit": "%", "activation": 26.7}
{"compound": "CC(C)[C@@H]1CC[C@@H](C)CC1=O", "scale.unit": "%", "activation": 16.4}
{"compound": "CCCCCOC(=O)Nc1nc(=O)n([C@@H]2O[C@H](C)[C@@H](O)[C@H]2O)cc1F", "scale.unit": "%", "activation": -37.9}
{"compound": "CCC(COC)n1nnc2c(Nc3ccc(OC)cc3C)nc(C)cc21 (stereo not given)", "scale.unit": "%", "activation": -5.25}
{"compound": "CC(C)C1NC(=O)C2CCCN2C1=O (stereo not given)", "scale.unit": "%", "activation": 8.93}
{"compound": "C/C=C/C(O)C1OC(=O)CC1Nc1ccc(C(=O)O)cc1 (stereo not given)", "scale.unit": "%", "activation": 5.34}
{"compound": "Nc1nc(N)c(-c2ccccc2)s1", "scale.unit": "%", "activation": -14.1}
{"compound": "COC1CC(O[C@H]2CC[C@@]3(C)C(=CC[C@]4(O)C3[C@H](O)[C@@H](O)[C@]3(C)[C@@H]([C@H](C)O)CC[C@@]34O)C2)OC(C)C1OC1CC(OC)C(OC2CC(OC)C(OC3OC(C)C(OC4OC(CO)C(O)C(O)C4O)C(OC)C3O)C(C)O2)C(C)O1 (stereo not given in full)", "scale.unit": "%", "activation": -4.58}
{"compound": "CCC(C)C1NC(=O)C(Cc2ccccc2)NC(=O)C(CCCCCC(=O)C(O)CO)NC(=O)C2CCCCN2C1=O (stereo not given)", "scale.unit": "%", "activation": -9.92}
{"compound": "CN(C)CCn1cc(S(=O)(=O)c2cccc(F)c2)c2cccnc21", "scale.unit": "%", "activation": -7.16}
{"compound": "C/C1=C\\CC[C@H](C)CCO[C@@H]2O[C@H](CO[C@@H]3OC[C@](O)(COC1=O)[C@H]3O)[C@@H](O)[C@H](O)[C@H]2O", "scale.unit": "%", "activation": 18.8}
{"compound": "CCCSc1ccc2nc(NC(=O)OC)[nH]c2c1", "scale.unit": "%", "activation": 6.69}
{"compound": "O=C(c1ccc(F)cc1)N1CCC[C@H](c2nc(-c3ccc(F)cc3)no2)C1", "scale.unit": "%", "activation": 6.17}
{"compound": "CC[C@H]1OC(=O)[C@H](C)C(=O)[C@H](C)[C@@H](OC2O[C@H](C)C[C@H](N(C)C)[C@H]2O)[C@@H](C)C[C@@H](C)C(=O)/C=C/[C@]1(C)O (stereo not given in full)", "scale.unit": "%", "activation": -4.58}
{"compound": "O[C@@H](COc1cccc2ncccc12)CN1CCN(C2c3ccccc3[C@@H]3[C@H](c4ccccc42)C3(F)F)CC1 (stereo not given in full)", "scale.unit": "%", "activation": 22}
{"compound": "C=CS(=O)(=O)N1CCCN(c2cc(NCCC(=O)O)nc(-c3ccccn3)n2)CC1", "scale.unit": "%", "activation": -4.47}
{"compound": "C[C@H](Cn1cnc2c(N)ncnc21)OCP(=O)(O)O", "scale.unit": "%", "activation": 61.4}
{"compound": "COc1c(OC2OC(CO)C(O)C(O)C2O)ccc(O)c1C(=O)OCc1ccccc1O[C@@H]1O[C@H](CO)[C@@H](O)[C@H](O)[C@H]1O (stereo not given in full)", "scale.unit": "%", "activation": 3.82}
{"compound": "CC(C)c1c(NC(=O)Nc2ccc(Cl)cc2)c(=O)n(-c2ccccc2)n1C", "scale.unit": "%", "activation": 9.07}
{"compound": "CCN(CC)CCc1nc(-c2ccccc2)no1", "scale.unit": "%", "activation": -25.1}
{"compound": "C=C(COC(=O)C(C)C)C1Oc2cc(C(C)=O)ccc2C1OC(=O)C(C)C (stereo not given)", "scale.unit": "%", "activation": 2.29}
{"compound": "CC(=O)OC[C@H]1O[C@@H](OC(C)=O)[C@H](OC(C)=O)[C@@H]1OC(C)=O", "scale.unit": "%", "activation": 28.8}
{"compound": "C[C@]1(OC(=O)/C=C/c2ccc(O)cc2)C[C@@H](O)[C@]2(O)C=CO[C@@H](O[C@@H]3O[C@H](CO)[C@@H](O)[C@H](O)[C@H]3O)C12 (stereo not given in full)", "scale.unit": "%", "activation": 3.57}
{"compound": "CC1(C)CC[C@]2(C(=O)O[C@@H]3O[C@H](CO[C@@H]4O[C@H](CO)[C@@H](O)[C@H](O)[C@H]4O)[C@@H](O)[C@H](O[C@@H]4O[C@H](CO)[C@@H](O)[C@H](O)[C@H]4O)[C@H]3O)[C@H](O)C[C@]3(C)C(=CCC4[C@@]5(C)CC[C@H](O[C@@H]6OC[C@@H](O)[C@H](O)[C@H]6O)[C@@](C)(C(=O)O)C5CC[C@]43C)[C@@H]2C1 (stereo not given in full)", "scale.unit": "%", "activation": 7.63}
{"compound": "COc1cc(/C=C(\\C#N)C(=O)Nc2nnc(C(F)(F)F)s2)ccc1OCc1ccc(C(F)(F)F)cc1C(F)(F)F", "scale.unit": "%", "activation": -42}
{"compound": "Cc1c(-c2ccccc2)oc2c(C(=O)OCCN3CCCCC3)cccc2c1=O", "scale.unit": "%", "activation": -16.7}
